MEASURED ON: human B1 receptor (Homo sapiens, UniProt P46663)
Construct: host or cells: CHO-K1
TEST NAME: Calcium flux assay (FLIPR) with recombinant CHO-K1 cells expressing human B1 receptor
Format: cell-based
TEST CONDITIONS: absence of 0.1% BSA in assay buffer, agonist Lys-(Des-Arg)-Bradykinin, read-out: hB1 free IC50
TEST READOUT: log10 IC50 (log10 of the value in nM)
Recall that a logarithmic scale is used here: each number is log10 of IC50 in nM.

>>> reading("O=C(O)c1cc(NC(=O)C2CC2c2ccccc2OC(F)(F)F)ccc1-c1cnn(C2CCC2)c1 (racemic)")
2.55
>>> reading("Cc1ccc(-c2ccc(NC(=O)C3CC3c3ccc(Cl)cc3)cc2C(=O)O)cn1 (racemic)")
3.38
>>> reading("O=C(O)c1cc(NC(=O)C2CC2c2ccc(Cl)cc2)ccc1-c1cnn(C2CCC2)c1 (single isomer, unassigned) [Example 7]")
2.07
>>> reading("CCC(F)(F)c1ccc(-c2ccc(NC(=O)C3CC3c3cccc(Cl)c3)cc2C(=O)O)cn1 (racemic)")
3.08
>>> reading("Cc1cccc(C2CC2C(=O)Nc2ccc(-c3cnn(C4CCC4)c3)c(C(=O)O)c2)c1 (racemic)")
2.04
>>> reading("CC(C)(C)c1ccn(-c2ccc(NC(=O)C3CC3c3ccc(Cl)cc3)cc2C(=O)O)n1 (racemic)")
3.35

With those in mind, consider the next compound.
Problem: Need log10 IC50, item O=C(O)c1cc(NC(=O)C2CC2c2cccc(Cl)c2)cc(F)c1-c1cnn(C2CCC2)c1 (single isomer, unassigned; (-)) [Example 9]
Result: 1.23

###

MEASURED ON: human B1 receptor (Homo sapiens, UniProt P46663)
Construct: host or cells: CHO-K1
TEST NAME: Calcium flux assay (FLIPR) with recombinant CHO-K1 cells expressing human B1 receptor
Format: cell-based
TEST CONDITIONS: absence of 0.1% BSA in assay buffer, agonist Lys-(Des-Arg)-Bradykinin, read-out: hB1 free IC50
pIC50: −log10 of the molar value.
Would you please tag the item met when its pIC50 is 6 or above, and not met when it is below?

Worked examples follow.
>>> assigned_class("CC(F)(F)c1ccc(-c2ccc(NC(=O)C3CC3c3ccccc3OC(F)(F)F)cc2C(=O)O)cn1 (racemic)")
"not met"
>>> assigned_class("O=C(O)c1cc(NC(=O)C2CC2c2cccc(C(F)(F)F)c2)ccc1-c1cnn(C2CCC2)c1 (racemic)")
"met"

Problem: # check: pIC50 of CCC(F)(F)c1ccc(-c2ccc(NC(=O)C3CC3c3cccc(C(F)(F)F)c3)cc2C(=O)O)cn1 (racemic) is greater than or equal to 6
Result: met

Problem: # check: pIC50 of CC(F)(F)c1ccc(-c2ccc(NC(=O)C3CC3c3cccc(C(F)(F)F)c3)cc2C(=O)O)cn1 (racemic) is greater than or equal to 6
Result: not met

Problem: # check: pIC50 of O=C(O)c1cc(NC(=O)C2CC2c2cccc(Cl)c2)ccc1-c1cnn(C2CCC2)c1 (racemic) [Example 1] is greater than or equal to 6
Result: met

###

MEASURED ON: human B1 receptor (Homo sapiens, UniProt P46663)
Construct: host or cells: CHO-K1
Sequence (P46663 1-353): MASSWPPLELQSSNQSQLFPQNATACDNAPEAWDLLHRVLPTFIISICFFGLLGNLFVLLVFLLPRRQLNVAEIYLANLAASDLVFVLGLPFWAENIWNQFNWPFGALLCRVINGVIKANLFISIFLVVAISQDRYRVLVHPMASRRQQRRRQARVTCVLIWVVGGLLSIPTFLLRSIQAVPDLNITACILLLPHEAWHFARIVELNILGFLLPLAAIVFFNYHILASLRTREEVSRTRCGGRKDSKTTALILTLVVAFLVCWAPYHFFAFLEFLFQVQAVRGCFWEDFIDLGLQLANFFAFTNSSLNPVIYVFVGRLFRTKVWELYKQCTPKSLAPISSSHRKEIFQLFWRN
TEST NAME: Calcium flux assay (FLIPR) with recombinant CHO-K1 cells expressing human B1 receptor
Format: cell-based
TEST CONDITIONS: presence of 0.1% BSA in assay buffer, agonist Lys-(Des-Arg)-Bradykinin, read-out: hB1 IC50
TEST READOUT: pIC50
Notebook: values listed as pIC50 are -log10 of the concentration (mol/L).

>>> reading("O=C(O)c1cc(NC(=O)C2CC2c2ccc(Cl)cc2)cc(F)c1-c1cnn(C2CCC2)c1 (racemic)")
7.11

With those in mind, consider the next molecule.
Problem: Need pIC50, item O=C(O)c1cc(NC(=O)C2CC2c2cccc(Cl)c2)ccc1-c1cnn(C2CCC2)c1 (racemic)
Result: 7.19

Reference for the values: patent US20190177279A1
